- measured target: T1, recombinant human IL1RAP ECD (human, UniProt Q9NPH3 21-367)
- T1 construct: His-tagged; also called hIL1RAP-ECD; rhuIL1RAP
- T1 sequence: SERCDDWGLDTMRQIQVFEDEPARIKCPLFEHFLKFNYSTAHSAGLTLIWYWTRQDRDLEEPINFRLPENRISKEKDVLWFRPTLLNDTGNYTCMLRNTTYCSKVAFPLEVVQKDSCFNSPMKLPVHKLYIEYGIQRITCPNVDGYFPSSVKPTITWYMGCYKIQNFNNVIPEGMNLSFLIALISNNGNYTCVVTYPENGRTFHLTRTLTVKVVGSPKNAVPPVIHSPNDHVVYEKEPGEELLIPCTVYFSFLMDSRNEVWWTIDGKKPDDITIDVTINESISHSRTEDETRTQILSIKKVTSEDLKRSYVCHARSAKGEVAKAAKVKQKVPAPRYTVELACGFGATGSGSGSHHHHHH
- protocol: SPR (ProteOn)
reported metric: Kd (nM)
Give the value in nM but do not write nM after it.

// query Find the recorded Kd belonging to IAPB04 (antibody, human IgG4 S228P, kappa, F234A L235A, V domains shown, IgG4-PAA; also called IAPB4; phage hit B4) VH: QVQLVQSGAEVKKPGSSVKVSCKASGGTFSSYAISWVRQAPGQGLEWMGGISAIFGTANYAQKFQGRVTITADESTSTAYMELSSLRSEDTAVYYCARHLHNGIHLDYWGQGTLVTVSS VL: EIVLTQSPATLSLSPGERATLSCRASQSVSNFLAWYQQKPGQAPRLLIYGASNRATGIPARFSGSGSGTDFTLTISSLEPEDFAVYYCQQGKHWPWTFGQGTKVEIKR and report it.
// result 4.73

// query Here is the next binder: IAPB64 (antibody, human IgG4 S228P, lambda, F234A L235A, V domains shown, IgG4-PAA; whole chains; also called IAPB54-LC-C91S) VH: QVQLVQSGSELKKPGASVKVSCKASGYTFNTYAMNWVRQAPGQGLEWMGWINTNTGNPTYAQGFTGRFVFSLDTSVSTAYLQISSLKAEDTAVYYCARRYFDWLLGAFDIWGQGTMVTVSS VL: QSALTQPRSVSGSPGHSVTISCTGTSSDVGDYNYVSWYQQRPGKVPKLLIYDVSKRPSGVPDRFSGSKSGNTASLTISGLQAEDEAIYFCSSYAGNYNVVFGGGTKLTVLG
// result 0.367

// query Here is the next binder: IAPB54 (antibody, human IgG4 S228P, lambda, F234A L235A, V domains shown, IgG4-PAA; also called 17B04 with human IgG4-PAA) VH: QVQLVQSGSELKKPGASVKVSCKASGYTFNTYAMNWVRQAPGQGLEWMGWINTNTGNPTYAQGFTGRFVFSLDTSVSTAYLQISSLKAEDTAVYYCARRYFDWLLGAFDIWGQGTMVTVSS VL: QSALTQPRSVSGSPGHSVTISCTGTSSDVGDYNYVSWYQQRPGKVPKLLIYDVSKRPSGVPDRFSGSKSGNTASLTISGLQAEDEAIYFCCSYAGNYNVVFGGGTKLTVLG
// result 0.0775

// query Here is the next binder: IAPB65 (antibody, human IgG4 S228P, kappa, F234A L235A, V domains shown, IgG4-PAA; whole chains; also called IAPB4-HC-G103A; IgG4-PAA, B4 mutant) VH: QVQLVQSGAEVKKPGSSVKVSCKASGGTFSSYAISWVRQAPGQGLEWMGGISAIFGTANYAQKFQGRVTITADESTSTAYMELSSLRSEDTAVYYCARHLHNAIHLDYWGQGTLVTVSS VL: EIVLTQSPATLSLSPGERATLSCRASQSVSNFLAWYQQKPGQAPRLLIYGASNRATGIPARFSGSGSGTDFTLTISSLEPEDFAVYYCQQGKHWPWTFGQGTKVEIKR
// result 10.4

Values compiled from patent US20190270826A1.
